target: Mitogen-activated protein kinase 8 (Homo sapiens); assay: Inhibition of N-terminal GST-tagged recombinant full length human JNK1 expressed in baculovirus infected Sf9 insect cells using IPTTPITTTYFFFKKK as substrate at 1 uM incubated for 60 mins in the presence of ATP by ADP-Glo reagent based luminescence assay relative to control
Sequence (P45983 whole entry): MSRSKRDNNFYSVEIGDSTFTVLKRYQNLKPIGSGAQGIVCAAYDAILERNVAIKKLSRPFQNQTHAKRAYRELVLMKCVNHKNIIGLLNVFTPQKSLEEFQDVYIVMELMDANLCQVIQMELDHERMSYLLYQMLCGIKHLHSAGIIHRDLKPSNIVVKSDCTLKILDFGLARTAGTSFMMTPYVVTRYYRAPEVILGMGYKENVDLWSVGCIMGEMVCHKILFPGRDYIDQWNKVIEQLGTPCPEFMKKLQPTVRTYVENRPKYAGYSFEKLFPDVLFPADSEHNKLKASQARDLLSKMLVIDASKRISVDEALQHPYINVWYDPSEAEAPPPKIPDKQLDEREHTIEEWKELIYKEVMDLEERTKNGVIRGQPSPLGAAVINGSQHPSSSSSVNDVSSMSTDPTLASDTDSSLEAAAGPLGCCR
Output MET for inhibition not less than 70%; output NOT MET otherwise.

Example cases with answers are listed next.
compound=CC(=O)Oc1ccc(Nc2nc(NCC(C)(C)C)ncc2C(N)=O)cc1 target_entity="Mitogen-activated protein kinase 8 (Homo sapiens)" category=MET
compound="N#CC(c1ccnc(NCCc2cccnc2)n1)c1nc2ccccc2s1 (stereo unspecified)" target_entity="Mitogen-activated protein kinase 8 (Homo sapiens)" category="NOT MET"
compound=CC(C)(C)CNc1ncc(C(N)=O)c(NC(C)(C)C)n1 target_entity="Mitogen-activated protein kinase 8 (Homo sapiens)" category="NOT MET"
compound=CC(C)(C)CNc1ncc(C(N)=O)c(NC2CCCCC2)n1 target_entity="Mitogen-activated protein kinase 8 (Homo sapiens)" category="NOT MET"
compound=CC(C)(C)CNc1ncc(F)c(Nc2ccccc2)n1 target_entity="Mitogen-activated protein kinase 8 (Homo sapiens)" category="NOT MET"

Quick check, inhibition >= 70%? `CC(C)(C)CNc1ncc(C(N)=O)c(NCC(C)(C)C)n1`
NOT MET

Quick check, inhibition >= 70%? `CC(C)(C)CNc1ncc(Br)c(Nc2ccccc2)n1`
NOT MET

Quick check, inhibition >= 70%? `CC(C)(C)CNc1ncc(C(N)=O)c(Nc2ccccc2)n1`
NOT MET

Quick check, inhibition >= 70%? `CC(C)(C)CNc1ncc(C(N)=O)c(Nc2ccc(NC(N)=O)c(NC(N)=O)c2)n1`
MET

Quick check, inhibition >= 70%? `CC(=O)Nc1ccc(Nc2nc(NCC(C)(C)C)ncc2C(N)=O)cc1`
MET

Data credit: ChEMBL document CHEMBL5370528
